Source listed as patent US7151105B2.

Target: Recombinant HCV polymerase (Hepatitis C virus genotype 1b)
Construct: Recombinant HCV polymerase was tested for its ability to perform primer/template-directed transcription
Sequence (P26663 2420-3010): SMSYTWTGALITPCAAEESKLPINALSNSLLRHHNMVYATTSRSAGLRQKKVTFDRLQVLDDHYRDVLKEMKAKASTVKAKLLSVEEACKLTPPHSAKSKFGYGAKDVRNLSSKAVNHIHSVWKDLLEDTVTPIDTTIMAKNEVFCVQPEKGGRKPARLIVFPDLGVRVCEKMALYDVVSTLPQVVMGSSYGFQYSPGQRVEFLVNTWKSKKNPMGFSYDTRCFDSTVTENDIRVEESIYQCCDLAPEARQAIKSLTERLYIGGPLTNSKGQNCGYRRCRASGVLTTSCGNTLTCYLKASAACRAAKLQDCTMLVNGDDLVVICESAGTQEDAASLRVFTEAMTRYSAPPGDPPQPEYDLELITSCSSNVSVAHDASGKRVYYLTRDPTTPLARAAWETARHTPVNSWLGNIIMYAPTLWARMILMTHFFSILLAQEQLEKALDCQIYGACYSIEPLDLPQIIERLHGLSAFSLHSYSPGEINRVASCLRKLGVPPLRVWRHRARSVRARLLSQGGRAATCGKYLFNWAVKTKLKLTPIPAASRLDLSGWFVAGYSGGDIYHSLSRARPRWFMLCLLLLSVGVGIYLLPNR
Assay: biochemical
Settings: inhibition of polymerase-directed transcription; 30 min at 30° C; 30 nM enzyme; cpm data in triplicate
pIC50: −log10 of the molar value.
Readout name: pIC50

Example cases with answers are listed next.
Compound | Assay value
CCc1cc(CCC2(C3CCCC3)CC(O)=C(Cc3nc4nc(C)cc(C)n4n3)C(=O)O2)cc(C(C)C)n1 (stereo not drawn) | 7.92
CCc1cc(CCC2(C3CCCC3)CC(O)=C(Cc3nc4nc(C)cc(C)n4n3)C(=O)O2)c(OC)cc1OC (stereo not drawn) | 7.85
C[C@@H](NC(=O)OC(C)(C)C)c1ccc(CCC2(C3CCCC3)CC(=O)CC(=O)O2)cc1 (stereo partly drawn) | 4.37
CCc1cc(CCC2(C3CCCC3)CC(O)=C(Cc3nc4nc(C)cc(C)n4n3)C(=O)O2)ccc1CNS(C)(=O)=O (single isomer, unassigned; enantiomer 2) [A(130)] | 8.52
CC(C)(O)c1ccc(CCC2(C3CCCC3)CC(O)=C(Cc3nc4ncccn4n3)C(=O)O2)cc1Cl (stereo not drawn) | 8.00
CCc1cc(CCC2(C3CCCC3)CC(O)=C(Cc3nc4nc(C)cc(C)n4n3)C(=O)O2)ccc1-c1ncco1 (single isomer, unassigned; enantiomer 1) [A(138)] | 8.00
CCc1cc(CCC2(C3CCCC3)CC(O)=C(Cc3nc4nc(C)cc(C)n4n3)C(=O)O2)ccc1-c1ncco1 (single isomer, unassigned; enantiomer 2) [A(139)] | 8.40
CCc1cc(CCC2(C3CCCC3)CC(O)=C(Cc3nc4nc(C)cc(C)n4n3)C(=O)O2)c2c(c1O)CCO2 (single isomer, unassigned; enantiomer 2) [A(13)] | 9.00

I = CCOC(=O)c1cnc2nc(CC3=C(O)CC(CCc4ccc(C(C)(C)C#N)c(Cl)c4)(C4CCCC4)OC3=O)nn2c1 (stereo not drawn)
II = COC(=O)c1ccc(CCC2(C3CCCC3)CC(=O)CC(=O)O2)cc1Cl (stereo not drawn)
III = CCOc1cc(O)c(CC)cc1CCC1(C2CCCC2)CC(O)=C(Cc2nc3ncc(C)cn3n2)C(=O)O1 (single isomer, unassigned) [A(58)]
IV = CCc1cc(CCC2(C3CCCC3)CC(O)=C(Cc3nc4nc(C)cc(C)n4n3)C(=O)O2)ccc1CCCOC (stereo not drawn)
Output the entries ranked by pIC50 from maximum down to minimum. Dear reader, please state the labels in the requested order. III, I, IV, II

I = CCc1cc(CCC2(C3CCCC3)CC(O)=C(Cc3nc4nc(C)cc(C)n4n3)C(=O)O2)ccc1NS(C)(=O)=O (stereo not drawn)
II = Cc1nc(CC2=C(O)CC(CCc3ccc(C(C)(C)C#N)c(Cl)c3)(C3CCCC3)OC2=O)n(C)n1 (stereo not drawn)
Lab notebook, comparison: I versus II , higher pIC50 goes to which? // return label of chosen record I

A = COc1ccc(CCC2(C3CCCC3)CC(O)=C(Cc3nc4nc(C)cc(C)n4n3)C(=O)O2)cc1C(F)(F)F (stereo not drawn)
B = CCc1cc(CCC2(C3CCCC3)CC(O)=C(Cc3nc4nc(C)cc(C)n4n3)C(=O)O2)ccc1OCCNC(=O)OC(C)(C)C (stereo not drawn)
C = CCc1cc(CCC2(C3CCCC3)CC(O)=C(Cc3nc4nc(C)cc(C)n4n3)C(=O)O2)c2c(c1O)CCO2 (single isomer, unassigned; enantiomer 1) [A(12)]
D = CC(C)(C#N)c1ncc(CCC2(C3CCCC3)CC(=O)CC(=O)O2)cc1Cl (stereo not drawn)
Order the 4 compounds from highest to lowest pIC50. Output the labels ranked as instructed. C, A, B, D

1 = CCOc1cc(O)c(CC)cc1CCC1(C2CCCC2)CC(O)=C(Cc2nc3nc(C)cc(C)n3n2)C(=O)O1 (stereo not drawn) [A(22)]
2 = CCn1nc(CC2=C(O)CC(CCc3ccc(C(C)(C)C#N)c(F)c3)(C3CCCC3)OC2=O)nc1C (stereo not drawn)
3 = COc1cc(OC)c(CCC2(C3CCCC3)CC(O)=C(Cc3nc(-c4ccccc4)nn3C)C(=O)O2)cc1Cl (stereo not drawn)
# rank by pIC50, ascending (min first) The labels, placed in the requested order, form the answer. 2, 3, 1

I = Cc1cc(C)n2nc(CC3=C(O)CC(CCc4ccc(S(C)(=O)=O)c(C(F)(F)F)c4)(C4CCCC4)OC3=O)nc2n1 (stereo not drawn)
II = CCC(C#N)(CC)c1ccc(CCC2(C3CCCC3)CC(O)=C(Cc3nc4nc(C)cc(C)n4n3)C(=O)O2)cc1C(F)(F)F (single isomer, unassigned) [A(154)]
Of the pair I and II , name the member with the lesser recorded pIC50. Record your answer as the label of the chosen record. II

a = CCc1cc(CCC2(C3CCCC3)CC(O)=C(Cc3nc4nc(C)cc(C)n4n3)C(=O)O2)ccc1CC#N (single isomer, unassigned; enantiomer 1) [A(116)]
b = CCc1cc(CCC2(C3CCCC3)CC(O)=C(Cc3nc4nc(C)cc(C)n4n3)C(=O)O2)ccc1CC#N (stereo not drawn) [A(101)]
c = CCC(C#N)(CC)c1ccc(CCC2(C3CCCC3)CC(O)=C(Cc3nc4nc(C)cc(C)n4n3)C(=O)O2)cc1C(F)(F)F (single isomer, unassigned) [A(155)]
List the 3 entries from lowest pIC50 to highest pIC50 value. Answer format: the labels, in the requested order. c, b, a
